Target entity: sigma-2 receptors (Homo sapiens, UniProt Q5BJF2)
Sequence (Q5BJF2 whole entry, looked up): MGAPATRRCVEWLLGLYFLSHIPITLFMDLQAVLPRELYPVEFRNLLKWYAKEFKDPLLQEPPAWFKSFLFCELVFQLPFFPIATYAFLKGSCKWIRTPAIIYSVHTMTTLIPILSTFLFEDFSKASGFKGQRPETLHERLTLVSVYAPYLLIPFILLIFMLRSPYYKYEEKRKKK
Assay info: Radiolabel Binding Studies for the Sigma-2 Receptor (3H-DTG competition)
Condition label: 3H-DTG radioligand; membrane fractions of cells expressing recombinant sigma-2 receptors
Observable: IC50 (nM)
Output spec: scalar in nM, unitless text.

Take a look at these entries with their results.
[[record]]
compound = "CCC1(CC)CC(CCN2CC3CN(c4ccncc4)CC3C2)OC1=O (centres unmarked) [Entry 2]"
observable = "IC50"
assay_value = 29

[[record]]
compound = "CCC1(CC)CC(CCN2CC3CN(c4ccccc4C(C)C)CC3C2)OC1=O (centres unmarked) [Entry 4]"
observable = "IC50"
assay_value = 2

[[record]]
compound = "O=C1OC(CCN2CC3(C2)CN(c2ccncc2)C3)CC12CCCCC2 (centres unmarked) [Entry 9]"
observable = "IC50"
assay_value = 34


Query Cc1cnccc1N1CC2CN(CCC3CC4(CCCCC4)C(=O)O3)CC2C1 (centres unmarked) [Entry 6] on sigma-2 receptors (Homo sapiens, UniProt Q5BJF2); IC50 returned: 3.9

Note to self: IC50 of Cc1cnccc1N1CC2(CN(CCC3CC4(CCCCC4)C(=O)O3)C2)C1 (centres unmarked) [Entry 12] with sigma-2 receptors (Homo sapiens, UniProt Q5BJF2) was 3.9

----------
Target entity: sigma-2 receptors (Homo sapiens)
Assay info: Radiolabel Binding Studies for the Sigma-2 Receptor (3H-DTG competition)
Condition label: 3H-DTG radioligand; membrane fractions of cells expressing recombinant sigma-2 receptors
pIC50: −log10 of the molar value.
Hi, to clarify the labels: t covers pIC50 from 8 upward, f covers anything below 8.

Example cases with answers are listed next.
[[record]]
compound = "CCC1(CC)CC(CCN2CC3CN(c4ccccc4)CC3C2)OC1=O (centres unmarked)"
classification = "t"

[[record]]
compound = "O=C1OC(CCN2CC3(C2)CN(c2ccccc2)C3)CC12CCCCC2 (centres unmarked)"
classification = "f"

[[record]]
compound = "CCC1(CC)CC(CCN2CC3(C2)CN(c2ccccc2)C3)OC1=O (centres unmarked)"
classification = "f"


Task: pIC50 >= 8 for CCC1(CC)CC(CCN2CC3(C2)CN(c2ccncc2)C3)OC1=O (centres unmarked) ?
Output: f

----------
Target entity: sigma-2 receptors (Homo sapiens)
Assay info: Radiolabel Binding Studies for the Sigma-2 Receptor (3H-DTG competition)
Condition label: 3H-DTG radioligand; membrane fractions of cells expressing recombinant sigma-2 receptors
Decide using IC50 alone. Strictly below 6 nM: TRUE. Equal to or above 6 nM: FALSE.

For orientation, consider the following solved cases.
[[record]]
compound = "O=C1OC(CCN2CC3CN(c4ccncc4)CC3C2)CC12CCCCC2 (centres unmarked)"
classification = "FALSE"

[[record]]
compound = "CC(C)c1ccccc1N1CC2CN(CCC3CC4(CCCCC4)C(=O)O3)CC2C1 (centres unmarked)"
classification = "TRUE"

[[record]]
compound = "CCC1(CC)CC(CCN2CC3CN(c4ccc(OC)cc4)CC3C2)OC1=O (centres unmarked)"
classification = "FALSE"

[[record]]
compound = "Cc1cc(N2CC3(CN(CCC4CC5(CCCCC5)C(=O)O4)C3)C2)cc(C)n1 (centres unmarked)"
classification = "TRUE"

[[record]]
compound = "CCC1(CC)CC(CCN2CC3CN(c4ccccc4OC)CC3C2)OC1=O (centres unmarked)"
classification = "FALSE"


Task: # check: IC50 < 6 nM for CCC1(CC)CC(CCN2CC3CN(c4ccccc4C#N)CC3C2)OC1=O (centres unmarked)
Output: FALSE

Task: Determine if Cc1cc(N2CC3CN(CCC4CC5(CCCCC5)C(=O)O4)CC3C2)cc(C)n1 (centres unmarked) shows IC50 strictly lower than 6 nM.
Output: FALSE

Task: Is the reported IC50 for CCC1(CC)CC(CCN2CC3CN(c4cccc(OC)c4)CC3C2)OC1=O (centres unmarked) strictly below 6 nM?
Output: FALSE

Task: Below 6 nM on IC50? Entry CCC1(CC)CC(CCN2CC3CN(c4cccc(C#N)c4)CC3C2)OC1=O (centres unmarked)
Output: FALSE

Task: I wonder whether CCC1(CC)CC(CCN2CC3CN(c4ccc(C#N)cc4)CC3C2)OC1=O (centres unmarked) has IC50 below 6 nM. Can you tell?
Output: FALSE

Task: Is 6 nM strictly greater than the compound's reported IC50? compound: Cc1cc(N2CC3(CN(CCC4CC5(CCCCC5)C(=O)O4)C3)C2)ccn1 (centres unmarked)
Output: TRUE

Where do the numbers come from? From patent US20240300954A1.
